Reference source for all entries: a melting point compilation (Tetko et al.; mined from patent text by program, amines drawn as free bases though some values may be those of a salt)

Recorded measurements of melting point, one per entry

# annotated cases, reported melting point shown
> print(dat)
                                   molecule  recordedresult
1    CCN(CC)CCNC(=O)c1ccc(I)c2cc3ccccc3nc12   103 to 105 °C
2  Cc1cccc(C(=O)Nc2ccc(S(N)(=O)=O)cc2)c1SSc1c(C)cccc1C(=O)Nc1ccc(S(N)(=O)=O)cc1   308 to 309 °C
3  CS(=O)(=O)c1ccc(-c2sc(Cc3ccccc3)nc2-c2ccc(F)cc2)cc1   117 to 118 °C
4  CN1CCN(C(=O)OC2C3=C(SCCS3)C(=O)N2c2ccccn2)CC1 (stereo not given)          145 °C

We next turn to a different molecule, shown below.
Quick one: give measured melting point for Nc1cnc(-c2cccc(Cl)c2Cl)c(N)n1
169 to 170 °C

* * *

endpoint: melting point

# annotated cases, reported melting point shown
> print(dat)
                                   compound       endpoint  recordedresult
1  CCCCCCc1cc2c(s1)-n1c(C)nnc1CN=C2c1ccc(C)cc1  melting point     74 to 76 °C
2  CC1(C)OC(c2ccc(S(C)(=O)=O)c(F)c2)=C(c2cccc(Cl)c2)C1=S  melting point   105 to 106 °C
3  Cc1ccc(-c2ccc(C(=O)Nc3ccc4nc(CN5CCCC5)ccc4c3)cn2)cc1  melting point   207 to 209 °C
4            Cn1nc(Br)c([N+](=O)[O-])c1NCCO  melting point          150 °C
5        CC(C)(C)CNc1cc(NCC(C)(C)C)nc(Cl)n1  melting point   178 to 185 °C
6  O=[N+]([O-])c1cccc(OC2CCCCO2)c1O (stereo not given)  melting point     72 to 73 °C
7  CC(=O)c1ccc(C(C)Oc2cccc(C(=O)Nc3ccc(C#N)cc3)c2)cc1 (stereo not given)  melting point     79 to 81 °C
8  COc1ccc(N(S(=O)(=O)c2ccc(C)cc2)S(=O)(=O)c2ccc(C)cc2)c([N+](=O)[O-])c1  melting point   180 to 182 °C

Quick one: give measured melting point for CCCOc1ccc(CCCCCC(=O)O)cc1
42 to 43 °C

Quick one: give measured melting point for O=C1NCCN1c1ccc(S(=O)(=O)Nc2ccc(C3CCCCC3)cc2)cc1
256 to 257 °C

* * *

endpoint: melting point

# annotated cases, reported melting point shown
> print(dat)
                                   compound       endpoint  recordedresult
1  C[C@H]1CCCC(C)(C)[C@@H]1C(=O)c1ccc(C(F)(F)F)cc1  melting point     16 to 20 °C
2                     NCCOc1ncc(Cl)c(N)c1Cl  melting point   115 to 116 °C

Quick one: give measured melting point for Nc1cncc(NC(=S)NC2CCCCC2)c1
114 to 116 °C

Quick one: give measured melting point for COc1cccc(Oc2c(NS(=O)(=O)c3ccc(C(C)(C)C)cc3)ncnc2SCCO)c1
150 °C

Quick one: give measured melting point for COc1cc(Nc2nccc(Nc3cccc(C)c3S(N)(=O)=O)n2)cc(OC)c1OC
72 to 75 °C

Quick one: give measured melting point for N#Cc1cc(N)ccc1N
85 to 87 °C

Quick one: give measured melting point for Oc1ccc(-c2ccccn2)c(O)c1
170 to 172 °C

Quick one: give measured melting point for O=C(O)CCC(=O)c1ccc(Br)c(S(=O)(=O)Cl)c1
183 to 185 °C

Quick one: give measured melting point for FC(F)(F)c1cccc(OC(c2ccc(Cl)cc2)c2nnn[nH]2)c1 (configuration not stated)
124 to 126 °C

Quick one: give measured melting point for NNC(=O)[C@@H]1C[C@]2(NC(=O)NC2=O)c2cc(F)ccc2O1
277 to 278 °C

Quick one: give measured melting point for CC1NC(=NC2CNCCO2)N(CCO)C1C (configuration not stated)
108 to 109 °C

Quick one: give measured melting point for CN1C(=O)Cc2ccc(F)cc21
100 to 101 °C

* * *

endpoint: melting point

# annotated cases, reported melting point shown
> print(dat)
                                   compound  recordedresult
1   Cc1nc(-c2ccc(OCC(C)C)c(C=O)c2)sc1C(=O)O   213 to 217 °C
2   O=C(O)C1=CC(CF)(CF)Oc2ccc(C(F)(F)F)cc21   159 to 161 °C
3  Nc1cnc(-c2ccc(Cl)cc2)n(CC(=O)NC(Cc2ccccc2)C(=O)C(F)(F)F)c1=O (stereo not given)   197 to 200 °C

We next turn to a different compound, shown below.
Quick one: give measured melting point for O=C(O)C1=C(Sc2ccccc2)CC2CC(=O)C12 (stereo not given)
213 to 215 °C

* * *

Recorded measurements of melting point, one per entry

# annotated cases, reported melting point shown
> print(dat)
                                   compound  recordedresult
1  C[C@H]1[C@@H](C(N)=O)CCN1c1ccc(C#N)c2ccccc12   204 to 206 °C
2  CCCCCCCCCCCCSCC(CO)NC(=O)CCCCCCCCCC (stereo not given)     64 to 67 °C

Quick one: give measured melting point for CC(C)C(=O)Nc1ccc(S(=O)(=O)c2ccc(F)cc2)cc1
112 to 115 °C

Quick one: give measured melting point for O=C1NCCN1c1nc(-c2ccc(Br)cc2)cs1
230 to 233 °C

Quick one: give measured melting point for COc1ccc(OC)c(CC(NC(=O)CC(C2CCCCC2)C2CCCCC2)C(=O)OC(C)(C)C)c1 (stereo not given)
108 to 111 °C

Quick one: give measured melting point for COCCc1sc2ncnc(N)c2c1-c1ccc(NC(=O)Nc2ccc(C)cc2)cc1
128 to 132 °C

Quick one: give measured melting point for CC(=O)c1c(-c2ccc(F)cc2)ncn1C1CC(C)(C)NC(C)(C)C1
134 to 136 °C

Quick one: give measured melting point for C[C@@H]1c2ccccc2-c2ccc(F)cc2N1C(=O)c1ccc(O)cc1O
182 to 184 °C

Quick one: give measured melting point for O=c1c2cccnc2sc(=Nc2ccccc2)n1Cc1ccccc1
105 to 106 °C

Quick one: give measured melting point for CC(=O)Oc1ccc2c(c1Cl)Sc1ccccc1N2C(C)=O
155 °C

Quick one: give measured melting point for COCCNc1ccc(S(=O)(=O)Oc2ccc(N)c([N+](=O)[O-])c2)cc1
105 °C

Quick one: give measured melting point for Cc1ccc(-n2c(=O)c(N)nc3cccnc32)cc1
> 250 °C

* * *

Recorded measurements of melting point, one per entry

> print(dat)
                                   compound  recordedresult
1      O=C(O)C(Cl)=C(Cl)C(O)=NCCc1ccc(F)cc1   137 to 138 °C
2  CCCS(=O)(=O)C(c1cnc(C(N)=O)cc1C)c1c(F)ccc(F)c1F (centres undefined)   202 to 204 °C
3   O=C(NC(=O)c1ccccc1)NC1CCN(Cc2ccccc2)CC1   179 to 180 °C
4  CCCNC(=O)N(CCC(=O)OC)CC1CC2c3cccc4[nH]cc(c34)CC2N(C)C1 (centres undefined)   130 to 132 °C
5  CN1CCC(=C2c3cc(Br)ccc3CC(=O)c3sccc32)CC1   172 to 173 °C

Quick one: give measured melting point for CCN(CC)C1=C2N=c3cc(Cl)ccc3=C2Oc2ccccc2N1Cc1ccccc1
132 to 134 °C

Quick one: give measured melting point for COC1OCC[C@@H]1NC(=O)[C@H](CC1CCCCC1)NC(=O)CNC(=O)COc1ccc2c(c1)Nc1ccccc1S2 (some centres undefined)
179 to 180 °C

Quick one: give measured melting point for CC(C)CCOc1c(-c2ccc(S(C)(=O)=O)cc2)cnn(-c2ccc(F)cc2)c1=O
117 to 120 °C

Quick one: give measured melting point for CC1CCN(c2cc3nc(C(C)(C)C)sc3cc2[N+](=O)[O-])CC1
116 to 120 °C

* * *

endpoint: melting point

> print(dat)
                                   compound       endpoint  recordedresult
1  COc1cc(C=C(CC(=O)N2CCOCC2)C(=O)O)cc(OC)c1OC  melting point   135 to 138 °C
2  CCC(=O)NC1=NN(c2ccccc2)C(C)C1 (centres undefined)  melting point   96 to 96.5 °C
3  O[C@H]1C[C@H]2CN(C3=Nc4cc(Cl)ccc4Sc4ccccc43)CCN2C1  melting point     58 to 60 °C
4  CCCCc1nc2cccc(C(=O)O)c2n1Cc1ccc2nc(-c3ccccc3-c3nnn[nH]3)ncc2c1  melting point   188 to 191 °C
5                  CCOC(=O)c1cncc(C(=O)O)c1  melting point   180 to 182 °C

We next turn to a different compound, shown below.
Quick one: give measured melting point for COc1ccc(-c2ccc3c(C(=O)N(C)C)c(OC)ccc3c2)cc1
187 to 188 °C
